- target under test: Adenosine A2 receptor (Rattus norvegicus, UniProt P29276+P30543)
- assay summary: Inhibition of [3H]- NECA binding to adenosine receptor A2
- Format: protein assay
result type: Ki (µM)
Use µM as the unit, but write only the number.

Worked examples, 2 molecules total:
{"columns": ["molecule", "unit symbol", "readout value"],
 "data": [
  ["OC[C@H]1OC(n2cnc3c(Nc4ccccc4)nc(Cl)nc32)[C@H](O)[C@@H]1O (stereo not given in full)", "µM", 1.7],
  ["C[C@@H](Cc1ccccc1)Nc1nc(Cl)nc2c1ncn2[C@@H]1O[C@H](CO)[C@@H](O)[C@H]1O", "µM", 3]
]}

Reported Ki for OC[C@H]1O[C@@H](n2cnc3c(Nc4ccccc4)ncnc32)[C@H](O)[C@@H]1O : what is it?
1.2

Reported Ki for OC[C@H]1O[C@@H](n2cnc3c(NC4CCCC4)ncnc32)[C@H](O)[C@@H]1O : what is it?
0.51

Reported Ki for C[C@H](Cc1ccccc1)Nc1nc(Cl)nc2c1ncn2[C@@H]1O[C@H](CO)[C@@H](O)[C@H]1O : what is it?
0.22

###

- assay summary: Effective concentration against A2AR mediated P12 adenylatencyclase activity
- Assay type: functional, Rattus norvegicus
result type: pEC50
Scale for pEC50: -log10 of concentration given in mol/L; no unit attached.

{"columns": ["molecule", "readout value"],
 "data": [
  ["C[C@@H](Cc1ccccc1)Nc1nc(Cl)nc2c1ncn2[C@@H]1O[C@H](CO)[C@@H](O)[C@H]1O", 5.52],
  ["OC[C@H]1O[C@@H](n2cnc3c(Nc4ccccc4)ncnc32)[C@H](O)[C@@H]1O", 5.51],
  ["C[C@H](Cc1ccccc1)Nc1ncnc2c1ncn2[C@@H]1O[C@H](CO)[C@@H](O)[C@H]1O [(R)-PIA]", 6.01],
  ["OC[C@H]1OC(n2cnc3c(Nc4ccccc4)nc(Cl)nc32)[C@H](O)[C@@H]1O (some centres not stated)", 5.80],
  ["C[C@H](Cc1ccccc1)Nc1nc(Cl)nc2c1ncn2[C@@H]1O[C@H](CO)[C@@H](O)[C@H]1O", 6.49]
]}

Reported pEC50 for OC[C@H]1O[C@@H](n2cnc3c(NC4CCCC4)nc(Cl)nc32)[C@H](O)[C@@H]1O : what is it?
6.14

Reported pEC50 for OC[C@H]1O[C@@H](n2cnc3c(NC4CCCC4)ncnc32)[C@H](O)[C@@H]1O : what is it?
5.49

###

Reported Ki for target or system Adenosine receptor A1 (Rattus norvegicus, UniProt P25099), by entry.
Use nM as the unit, but write only the number.

Worked examples, 3 compounds total:
{"columns": ["compound", "readout value"],
 "data": [
  ["OC[C@H]1OC(n2cnc3c(Nc4ccccc4)nc(Cl)nc32)[C@H](O)[C@@H]1O (some centres undefined)", 7.6],
  ["C[C@@H](Cc1ccccc1)Nc1nc(Cl)nc2c1ncn2[C@@H]1O[C@H](CO)[C@@H](O)[C@H]1O", 20],
  ["C[C@H](Cc1ccccc1)Nc1nc(Cl)nc2c1ncn2[C@@H]1O[C@H](CO)[C@@H](O)[C@H]1O", 1.4]
]}

// below: Ki requested for another compound
Query Ki on Adenosine receptor A1 (Rattus norvegicus, UniProt P25099) for OC[C@H]1O[C@@H](n2cnc3c(Nc4ccccc4)ncnc32)[C@H](O)[C@@H]1O
Sequence (P25099 whole entry): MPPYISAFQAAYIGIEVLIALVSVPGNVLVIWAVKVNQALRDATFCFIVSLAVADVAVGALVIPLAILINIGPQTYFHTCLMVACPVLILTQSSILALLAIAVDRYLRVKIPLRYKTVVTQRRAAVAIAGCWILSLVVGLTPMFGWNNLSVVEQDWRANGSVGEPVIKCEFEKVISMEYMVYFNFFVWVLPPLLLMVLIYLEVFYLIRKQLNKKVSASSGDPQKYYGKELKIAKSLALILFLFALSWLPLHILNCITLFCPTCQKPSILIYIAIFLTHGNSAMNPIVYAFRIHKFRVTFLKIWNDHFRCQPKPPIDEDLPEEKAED
16
